Taken from patent US20250129069A1.

# Target Or Test System: human Werner helicase (WRN, amino acids 517-1235 with L1074F point mutation) (Homo sapiens (Human), UniProt Q14191, L1074F)
# Sequence (Q14191 other isoform, or with tags, fused parts or gaps L1074F (already in the parent)): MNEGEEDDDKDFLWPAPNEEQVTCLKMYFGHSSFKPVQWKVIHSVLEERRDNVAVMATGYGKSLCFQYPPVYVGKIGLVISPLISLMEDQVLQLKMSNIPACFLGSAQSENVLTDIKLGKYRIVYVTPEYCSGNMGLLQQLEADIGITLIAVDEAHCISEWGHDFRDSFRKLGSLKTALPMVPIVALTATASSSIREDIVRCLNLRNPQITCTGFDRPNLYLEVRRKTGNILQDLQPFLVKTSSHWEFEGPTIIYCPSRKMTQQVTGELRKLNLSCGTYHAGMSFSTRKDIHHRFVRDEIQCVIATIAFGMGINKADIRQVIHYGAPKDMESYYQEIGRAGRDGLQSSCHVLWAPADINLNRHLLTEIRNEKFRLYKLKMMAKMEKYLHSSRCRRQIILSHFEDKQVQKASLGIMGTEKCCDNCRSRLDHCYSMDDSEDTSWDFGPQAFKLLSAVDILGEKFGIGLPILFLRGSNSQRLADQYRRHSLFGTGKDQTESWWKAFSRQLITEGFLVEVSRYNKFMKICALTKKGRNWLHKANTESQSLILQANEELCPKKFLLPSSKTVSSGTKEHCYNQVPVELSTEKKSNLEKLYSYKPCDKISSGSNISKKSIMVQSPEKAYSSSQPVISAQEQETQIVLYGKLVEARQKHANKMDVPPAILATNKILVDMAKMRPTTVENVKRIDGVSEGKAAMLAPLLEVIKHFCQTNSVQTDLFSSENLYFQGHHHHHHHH
# Assay Method Text: WRN (BV08) ADP-Glo assay
# Type: biochemical
# Assay Context: human WRN (aa 517-1235, L1074F), read-out: ADP-Glo_hWRN_IC50

# Compound, IC50
data = [
    ("CCc1c(N2CCN(C(=O)c3c(OC)ncc(C)c3O)[C@H]3CC[C@@H]32)c(=O)c2nn(-c3ccnc(C)c3)nc2n1CC(=O)NC12CC(C3CC3)(C1)C2 [Compound I-74]", "5 to 50 nM"),
    ("CCc1c(N2CCN(C(=O)c3ncnc(C)c3O)CC2)c(=O)c2nn(-c3ccnc(OC)c3)nc2n1CC(=O)Nc1ccc(C(F)(F)F)cc1Cl [Compound I-149]", "≤ 5 nM"),
    ("CCc1c(C2=CCN(C(=O)c3ncnc(C)c3O)CC2)c(=O)c2nn(-c3ccnc(OC)c3)nc2n1CC(=O)NC12CC(C(C)C)(C1)C2 [Compound I-79]", "5 to 50 nM"),
    ("CCc1c(N2CCN(C(=O)c3c(OC)ccc[n+]3[O-])CC2)c(=O)c2nn(C3=CCOCC3)nc2n1CC(=O)Nc1ccc(C(F)(F)F)cc1Cl [Compound I-214]", "5 to 50 nM"),
    ("CCc1c(N2CCN(C(=O)c3c(O)ccc4ncoc34)CC2)c(=O)c2nn(-c3ccnc(OC)c3)nc2n1CC(=O)NC12CC(C(F)(F)F)(C1)C2 [Compound I-3]", "5 to 50 nM"),
    ("CCc1c(N2CCN(C(=O)c3c(OC)ncc(C)c3O)CC2)c(=O)c2nn(-c3ccnc(OC)c3)nc2n1CC(=O)NC12CC(C3CC3)(C1)C2 [Compound I-129]", "5 to 50 nM"),
    ("CCc1c(N2CCN(C(=O)c3ncnc(C)c3O)[C@H]3CC[C@@H]32)c(=O)c2nn(C3CC4(COC4)C3)nc2n1CC(=O)NC12CC(C(C)C)(C1)C2 [Compound I-160]", "5 to 50 nM"),
    ("CCc1c(N2CCN(C(=O)c3ccc4cccnc4c3O)[C@H]3CC[C@@H]32)c(=O)c2nn(C3=CCOCC3)nc2n1CC(=O)NC12CC(C(C)C)(C1)C2 [Compound I-159]", "5 to 50 nM"),
    ("CCc1c(N2CCN(C(=O)c3ncnc(C)c3O)[C@H]3CC[C@@H]32)c(=O)c2nn(-c3ccnc(OC)c3)nc2n1CC(=O)NC12CC(C3CCCC3)(C1)C2 [Compound I-195]", "≤ 5 nM"),
    ("CCc1c(C2=C(C)CN(C(=O)c3ncnc(C)c3O)CC2)c(=O)c2nn(-c3ccnc(OC)c3)nc2n1CC(=O)NC12CC(C(C)C)(C1)C2 [Compound I-78]", "5 to 50 nM"),
    ("CCc1c(N2CCN(C(=O)c3ncnc(C)c3O)CC2)c(=O)c2nn(-c3ccnc(OC)c3)nc2n1CC(=O)NC12CC(C3CC3)(C1)C2 [Compound I-135]", "5 to 50 nM"),
    ("CCc1c(N2CCN(C(=O)c3ncnc(C)c3O)[C@H]3CC[C@@H]32)c(=O)c2nn(C3=CCOCC3)nc2n1CC(=O)NC12CC(C3CC3)(C1)C2 [Compound I-31]", "5 to 50 nM"),
    ("CCc1c(N2CCN(C(=O)c3nccnc3OC)[C@H]3CC[C@@H]32)c(=O)c2nn(C3=CCOCC3)nc2n1CC(=O)NC12CC(C(C)C)(C1)C2 [Compound I-200]", "5 to 50 nM"),
    ("CCc1c(N2CCN(C(=O)c3cc(N4CCN(C)CC4)ccc3OC)[C@H]3CC[C@@H]32)c(=O)c2nn(C3=CCOCC3)nc2n1CC(=O)NC12CC(C(C)C)(C1)C2 [Compound I-165]", "5 to 50 nM"),
    ("CCc1c(N2CCN(C(=O)c3c(OC)ncc(C)c3O)CC2)c(=O)c2nn(-c3ccnc(OC)c3)nc2n1CC(=O)NC1CC2(CCC2)C1 [Compound I-125]", "5 to 50 nM"),
    ("CCc1c(N2CCN(C(=O)c3ncnc(C)c3O)[C@H]3CC[C@@H]32)c(=O)c2nn(-c3ccnc(OC)c3)nc2n1CC(=O)NC1CC2(CCC2)C1OC (stereo partly shown) [Compound I-71]", "100 to 500 nM"),
    ("CCc1c(N2CCN(C(=O)c3ccc4cccc(O)c4n3)[C@H]3CC[C@@H]32)c(=O)c2nn(C3=CCOCC3)nc2n1CC(=O)NC12CC(C(C)C)(C1)C2 [Compound I-158]", "5 to 50 nM"),
    ("CCc1c(N2CCN(C(=O)c3ncnc(C)c3O)[C@H]3CC[C@@H]32)c(=O)c2nn(C3=CCOCC3)nc2n1CC(=O)Nc1ccc(C(F)(F)F)cc1F [Compound I-12]", "≤ 5 nM"),
    ("CCc1c(N2CCN(C(=O)c3c(O)ccc4ncoc34)CC2)c(=O)c2nn(-c3ccnc(OC)c3)nc2n1CC(=O)NC12CC(CC)(C1)C2 [Compound I-142]", "5 to 50 nM"),
    ("CCc1c(N2CCN(C(=O)c3ncnc(C)c3O)[C@H]3CC[C@@H]32)c(=O)c2nn(-c3ccc(OC)cc3)nc2n1CC(=O)NC12CC(C(C)C)(C1)C2 [Compound I-155]", "≤ 5 nM"),
    ("CCc1c(N2CCN(C(=O)c3cnn(C)c3OC)[C@H]3CC[C@@H]32)c(=O)c2nn(C3=CCOCC3)nc2n1CC(=O)NC12CC(C(C)C)(C1)C2 [Compound I-210]", "5 to 50 nM"),
    ("CCc1c(N2CCN(C(=O)c3ncnc(C)c3O)[C@H]3CC[C@@H]32)c(=O)c2nn(-c3ccc(OC)nc3)nc2n1CC(=O)NC12CC(C(C)C)(C1)C2 [Compound I-156]", "5 to 50 nM"),
]
